Assay: Measurement of serum half life (pharmacokinetics) in mice
Type: in vivo
Details: mouse, serum, iv, 3 mg/kg, 3 mg/Kg IV, individual mice and Avg.
Procedure: Tests were performed to determine whether JWZ-7-7 is capable of maintaining sufficiently high blood levels for killing SCLC and DLBCL. Formulations for either IV or IP administration were prepared as follows: […] After either IV or IP injection of 3 mice each with either 3 mg/Kg (IV) or 10 mg/Kg(IP), the levels of JWZ-7-7 were measured at the indicated intervals. The calculated T1/2 is 4.47 hours for IV injection and 5.63 hours for […].

Chemical Smiles	Readout Unit	half-life
CNC(=O)COc1cc2cc(Nc3nc(N4CCC(C(=O)NCCCCCCCNC(=O)C[C@@H]5N=C(c6ccc(Cl)cc6)c6c(sc(C)c6C)-n6c(C)nnc65)CC4)ncc3Cl)cc(OC)c2n(C)c1=O	h	4.47

----------
Biological target: BRD4^BD1 (Homo sapiens)
Construct: 6xHis-TEV (N, cleaved yes)
Assay: Isothermal calorimetry (ITC), binary titration
Settings: read-out: KD BRD4:TCIP1
Measured Property: Kd (µM)

Compound	Readout Unit	Measured Number
CNC(=O)COc1cc2cc(Nc3nc(N4CCC(C(=O)NCCCCCCCNC(=O)C[C@@H]5N=C(c6ccc(Cl)cc6)c6c(sc(C)c6C)-n6c(C)nnc65)CC4)ncc3Cl)cc(OC)c2n(C)c1=O [TCIP1]	µM	5.08

----------
Assay: Measurement of serum half life (pharmacokinetics) in mice
Format: in vivo
Settings: mouse, 3 mg/Kg IV; individual mice and Avg.; 3 mg/kg; mean; read-out: Cmax

Chemical Smiles	Cmax (µM)
CNC(=O)COc1cc2cc(Nc3nc(N4CCC(C(=O)NCCCCCCCNC(=O)C[C@@H]5N=C(c6ccc(Cl)cc6)c6c(sc(C)c6C)-n6c(C)nnc65)CC4)ncc3Cl)cc(OC)c2n(C)c1=O	26.7

----------
Experiment: Measurement of serum half life (pharmacokinetics) in mice
Assay type: in vivo
Conditions: C57BL/6, mouse, serum, ip, 10 mg/kg, 10 mg/Kg IP, individual mice and Avg.

Chemical Smiles	half-life
CNC(=O)COc1cc2cc(Nc3nc(N4CCC(C(=O)NCCCCCCCNC(=O)C[C@@H]5N=C(c6ccc(Cl)cc6)c6c(sc(C)c6C)-n6c(C)nnc65)CC4)ncc3Cl)cc(OC)c2n(C)c1=O	338 min

----------
Assay: Measurement of serum half life (pharmacokinetics) in mice
Assay type: in vivo
Settings: mouse, serum, iv, 3 mg/kg, 3 mg/Kg IV, individual mice and Avg., read-out: MRTINF_obs

Chemical Smiles	Readout Unit	MRT inf
CNC(=O)COc1cc2cc(Nc3nc(N4CCC(C(=O)NCCCCCCCNC(=O)C[C@@H]5N=C(c6ccc(Cl)cc6)c6c(sc(C)c6C)-n6c(C)nnc65)CC4)ncc3Cl)cc(OC)c2n(C)c1=O	h	1.59

----------
System: NCI-H2196
Experiment: Dose response on viability of small cell lung cancer line, resazurin assay
Assay type: cell-based
Settings: NCI-H2196, 72 h treatment
pIC50: −log10 of the molar value.

Compound	pIC50
Cc1sc2c(c1C)C(c1ccc(Cl)cc1)=N[C@@H](CC(=O)OC(C)(C)C)c1nnc(C)n1-2 [JQ1]	4.84

----------
Assay: Measurement of serum half life (pharmacokinetics) in mice
Assay type: in vivo
Conditions: mouse, serum, iv, 3 mg/kg, 3 mg/Kg IV, individual mice and Avg., read-out: Tmax

Chemical Smiles	Tmax, min
CNC(=O)COc1cc2cc(Nc3nc(N4CCC(C(=O)NCCCCCCCNC(=O)C[C@@H]5N=C(c6ccc(Cl)cc6)c6c(sc(C)c6C)-n6c(C)nnc65)CC4)ncc3Cl)cc(OC)c2n(C)c1=O	4.8
